System: HCC 2998
Assay: NCI tumour cell line growth inhibition, 48 h
Activity calls are given as the source filed them. Cut-off read from the data, not from the text of the source: active = GI50 up to about 1.1 µM and inactive = higher.
Outcomes: 1.0 for active, 0.0 for inactive

- compound: "COc1ccc2c(c1)Cc1c(NCCN(C)C)ccc(C(=O)NCCCN(C)CCCNC(=O)c3ccc(NCCN(C)C)c4c3Nc3ccc(OC)cc3C4)c1N2"
  discrete label: 1.0
- compound: "COC(=O)[C@H](Cc1ccccc1)NP(=O)(O)OCC1C=CC(n2cc(C)c(=O)[nH]c2=O)O1 (stereo partly drawn)"
  discrete label: 0.0
- compound: "CC(=O)O[C@H]1CCC2[C@@H]3CCC4=C(O)C(=O)C(C#N)C[C@]4(C)C3CC[C@@]21C (stereo partly drawn)"
  discrete label: 0.0
- compound: "O=C(/C=C/c1ccccc1)NNC(=O)c1c(Cl)c(Cl)c(Cl)c(Cl)c1-c1nc2ccccc2[nH]1"
  discrete label: 0.0
- compound: "Cc1ccc(S(=O)(=O)CNC(=S)CCCC(=S)NCS(=O)(=O)c2ccc(C)cc2)cc1"
  discrete label: 0.0
- compound: "C/C=C(/C)C(=O)OC1CC(C)[C@H]2CC(=O)C(C)=C2CC1C(C)(C)OC(C)=O (stereo partly drawn)"
  discrete label: 0.0
- compound: "Clc1ccc(OCc2nnc3sc(-c4ccc(-c5ccc(Cl)cc5Cl)o4)nn23)c(Cl)c1"
  discrete label: 0.0
- compound: "CC(C)CCCC(C)[C@H]1CCC(C2C[C@@H](O)[C@@H]3CC(O)[C@@H](O)C[C@]3(CO)C2=O)[C@]1(C)CCO (stereo partly drawn)"
  discrete label: 0.0

----------
System: NCI-H23
Assay: NCI tumour cell line growth inhibition, 48 h
Active and inactive are the calls of the source. Rule as the data show it: active = GI50 up to about 1.1 µM and inactive = higher.
Possible outcomes: active, inactive

- compound: "O=C(O)Cc1ccc(Nc2nc3ccccc3nc2C(=O)O)cc1"
  discrete label: "inactive"
- compound: "CCC1(C)C=Cc2c(cc(OC)c3c(=O)c4ccccc4n(C)c23)O1 (stereo not given)"
  discrete label: "inactive"
- compound: "COC(=O)C1=C(C)N2CCOC2CC1c1ccccc1 (stereo not given)"
  discrete label: "inactive"
- compound: "CN(C)CC/C(=N\\Nc1ccc(Cl)c(Cl)c1)c1ccccc1"
  discrete label: "inactive"
- compound: "C/C(=N\\Nc1nc2ccccc2s1)c1cc2ccccc2cn1"
  discrete label: "inactive"
- compound: "O=c1cc(N2CCCC2)[nH]c(=O)n1-c1ccccc1"
  discrete label: "inactive"
- compound: "CC1(C)CC(=O)c2c(nc3c4c([nH]c(-c5ccc([N+](=O)[O-])cc5)c24)CC(C)(C)C3)C1"
  discrete label: "inactive"
- compound: "CCOC(=O)C1S/C(=N\\c2ccc(Cl)cc2Cl)N=C1C (stereo not given)"
  discrete label: "inactive"
- compound: "CCCNC(=O)OCc1c(COC(=O)NCCC)c(-c2ccc(Cl)c(Cl)c2)n2c1CCC2"
  discrete label: "inactive"
- compound: "C/C(=N/NC(=S)Nc1ccc([N+](=O)[O-])cc1)c1cccc(/C(C)=N\\NC(=S)Nc2ccc([N+](=O)[O-])cc2)n1"
  discrete label: "active"

----------
Tested on: PC-3
Assay: NCI tumour cell line growth inhibition, 48 h
Active and inactive are the calls of the source. Cut-off read from the data, not from the text of the source: active = GI50 up to about 1.1 µM and inactive = higher.
Possible outcomes: yes for active, no for inactive

- compound: "O=c1cc(N2CCCC2)[nH]c(=O)n1-c1ccccc1"
  discrete label: "no"
- compound: "CN(C)c1cccc(/C=C(\\C#N)c2ccccc2)c1"
  discrete label: "yes"
- compound: "CC(=O)C(C(C)=O)[C@H]1OC(C)(C)O[C@H]1[C@H]1COC(C)(C)O1"
  discrete label: "no"
- compound: "NCC(=O)N[C@H]1c2ccsc2/C(=N/O)[C@H]1O"
  discrete label: "no"
- compound: "O=S(=O)(O)c1ccc2cc(/N=N\\c3cc(S(=O)(=O)O)c4cccnc4c3O)ccc2c1"
  discrete label: "no"
- compound: "CN(C)c1nc(-c2ccccc2)c(C(=O)c2c[nH]c3ccccc23)s1"
  discrete label: "no"
- compound: "Cc1ccnn1CCc1ccc(Cl)cc1Cl"
  discrete label: "no"
- compound: "CNC(=S)N/N=C(\\C)c1nc2cccnc2[nH]1"
  discrete label: "no"
- compound: "COc1ccc(N2C(=O)C(Cl)C2c2cc3cc(Br)ccc3nc2Cl)cc1 (stereo unspecified)"
  discrete label: "no"
- compound: "CCOC(=O)C(C/C=C/CO)N(C)C(=O)OC(C)(C)C (stereo unspecified)"
  discrete label: "no"
- compound: "O=C1O/C(=C/c2ccccc2)C(c2ccccc2)=C1O"
  discrete label: "no"

----------
Test system: A549
Test: NCI tumour cell line growth inhibition, 48 h
The source made the active and inactive calls. Rule as the data show it: active = GI50 up to about 1.1 µM and inactive = higher.
Outcomes: YES for active, NO for inactive

- molecule: "Cc1ccc(Oc2ccc(C(=O)c3cccc(C(=O)c4ccc(Oc5ccc(C)cc5)cc4)n3)cc2)cc1"
  discrete label: "NO"
- molecule: "c1ccc(SC(Sc2ccccc2)c2ccc3c(c2)OCO3)cc1"
  discrete label: "NO"
- molecule: "COc1ccc(C(SCCO)(c2ccccc2)c2ccc(OC)cc2)cc1"
  discrete label: "NO"
- molecule: "O=C(CCCN1CCC(O)(c2ccc(Cl)cc2)CC1)c1ccc(F)cc1"
  discrete label: "NO"
- molecule: "CC(C)(CO)N1C(=O)c2ccccc2C1(O)c1ccc(Cl)cc1 (configuration not stated)"
  discrete label: "NO"
- molecule: "CCOC(=O)C1S/C(=N\\c2ccc(Cl)cc2Cl)N=C1C (configuration not stated)"
  discrete label: "NO"
- molecule: "OC1(c2ccccc2)CCCCCCCCC(O)(c2ccccc2)CCCCCCCC1 (configuration not stated)"
  discrete label: "NO"
- molecule: "O=C1CN=C(C[N+](=O)[O-])c2ccccc21"
  discrete label: "NO"
- molecule: "CC(=O)O[C@H]1CCC2[C@@H]3CCC4=C(O)C(=O)C(C#N)C[C@]4(C)C3CC[C@@]21C (some centres not stated)"
  discrete label: "NO"
- molecule: "COS(=O)CCOC(=O)c1ccccc1SSc1ccccc1C(=O)OCCS(=O)OC (configuration not stated)"
  discrete label: "NO"
- molecule: "O=C1O/C(=C/c2ccccc2)C(c2ccccc2)=C1O"
  discrete label: "NO"
- molecule: "Cc1ccc2c(O)cc(-c3sccc3C)nc2n1"
  discrete label: "YES"
- molecule: "COCCOCN(C(=O)C1=CCC2(CC1)OCCO2)c1ccccc1I"
  discrete label: "NO"
- molecule: "O=c1cc(N2CCCC2)[nH]c(=O)n1-c1ccccc1"
  discrete label: "NO"
- molecule: "COC(=O)C1Cc2c([nH]c3ccccc23)C=N1 (configuration not stated)"
  discrete label: "NO"
- molecule: "N#Cc1c(-c2ccc([N+](=O)[O-])cc2)c(C#N)c(=O)n(NS(=O)(=O)c2ccccc2)c1O"
  discrete label: "NO"
- molecule: "O=C1c2ccccc2-n2nnnc2C2CSCN12 (configuration not stated)"
  discrete label: "NO"
- molecule: "Cc1nc2ccc(F)cc2c2c1CCO2"
  discrete label: "NO"
- molecule: "C/C=C/C=C\\C=C/C(O)C(C)C(CCC(C)C1OC(=O)C=CC1C)OP(=O)(O)O (configuration not stated)"
  discrete label: "YES"
- molecule: "CC(C)OC(=O)OCSc1ccccc1/N=C/c1cccc([N+](=O)[O-])c1"
  discrete label: "NO"
- molecule: "CSC1(SC2=NCCN2)SC2(NCCN2)S1"
  discrete label: "NO"
- molecule: "CCOc1ccc(N/C(=C(/C(Cl)=C(/Cl)Nc2ccccc2)[N+](=O)[O-])n2nnc3ccccc32)cc1"
  discrete label: "NO"
- molecule: "O=C1CC2(CCC(O)(c3cccc4ccccc34)C(C(=O)c3cccc4ccccc34)C2)C(=O)c2ccccc2N1 (configuration not stated)"
  discrete label: "NO"
- molecule: "Cc1ccccc1C1=[N+]([O-])c2ccc(Cl)cc2C1=O"
  discrete label: "NO"
- molecule: "Clc1cc2ns[s+]c2cc1Cl"
  discrete label: "NO"
- molecule: "CCCCCCCCCCCCCCCCOCC(Cl)COP(=O)(O)OP(=O)(O)OCC1OC(n2cnc3c(N)ncnc32)C(O)C1O (configuration not stated)"
  discrete label: "NO"
- molecule: "C=C(C)C1CCC(C(=O)O)CC1 (configuration not stated)"
  discrete label: "NO"

----------
System: SNB-75
Assay: NCI tumour cell line growth inhibition, 48 h
The source made the active and inactive calls. Rule as the data show it: active = GI50 up to about 1.1 µM and inactive = higher.
GI50: recorded values
endpoint label: GI50

- compound: "C/C(=N\\Nc1nc2ccccc2s1)c1cc2ccccc2cn1"
  result: "3.24 µM (inactive)"
- compound: "O=C1C(=C2CCCC2)CCC1CN1CCCCC1 (stereo unspecified)"
  result: "0.489 µM (active)"
- compound: "CC1(C)CC(=O)C(=CNc2nc(-c3ccccc3)cs2)C(=O)C1"
  result: "33.7 µM (inactive)"
- compound: "O=C(CCCN1CCC(O)(c2ccc(Cl)cc2)CC1)c1ccc(F)cc1 [HALOPERIDOL]"
  result: "23.8 µM (inactive)"
- compound: "CN(C)c1ccc(/C=C2\\Oc3ccccc3C2=O)cc1"
  result: "> 100 µM (inactive)"
- compound: "CC(C)(C)c1ccc(C(C)(C)C)c(N2C(=O)C3ON=C(c4ccc([N+](=O)[O-])cc4)C3C2=O)c1 (stereo unspecified)"
  result: "5.07 µM (inactive)"
